system: HepG2 hepatoma cells; experiment: Anti-tumor activity in vitro, MTT method, HepG2; assay type: cell-based, human; conditions: Homo sapiens; HepG2, 72 h, MTT; read-out: IC50 HepG2 72 h
ASSAY_ENDPOINT: pIC50
Note on pIC50: it is the negative log10 of concentration, concentration in mol/L.

Please look up its pIC50: COc1ccc(-c2oc3c(CC=C(C)C)c(O)cc(O)c3c(=O)c2OC(=O)CCC(=O)NCCCCCOCc2cn(C3O[C@H](CO)[C@@H](O)[C@H](O)[C@H]3O)nn2)cc1 (stereo partly drawn)
4.92

Please look up its pIC50: `COc1ccc(-c2oc3c(CC=C(C)C)c(O)cc(O)c3c(=O)c2OC(=O)CCC(=O)OCCOCCOCCOCCOCc2cn([C@H]3O[C@@H](CO)[C@H](O)[C@@H](O)[C@@H]3O)nn2)cc1`
4.60

Please look up its pIC50: `COc1ccc(-c2oc3c(CC=C(C)C)c(O)cc(O)c3c(=O)c2OC(=O)CCC(=O)OCCN(CCOCc2cn(CCO[C@@H]3O[C@H](CO)[C@@H](O)[C@H](O)[C@H]3O)nn2)c2ccccc2)cc1`
5.04

* * *

assay: Determination of solubility (HPLC); format: physicochemical; details: 37 °C, saline or isotonic, thermodynamic from solid
Please provide measured solubility for the entries that follow.

Please look up its solubility: `COc1ccc(-c2oc3c(CC=C(C)C)c(O)cc(O)c3c(=O)c2OC(=O)CCC(=O)OCCCOCc2cn(CCO[C@H]3O[C@@H](CO)[C@H](O)[C@@H](O)[C@@H]3O)nn2)cc1`
16.8 µg/mL

Please look up its solubility: `COc1ccc(-c2oc3c(CC=C(C)C)c(O)cc(O)c3c(=O)c2OC(=O)CCC(=O)OCCOCCOCCOCc2cn(CCO[C@H]3O[C@@H](CO)[C@H](O)[C@@H](O)[C@@H]3O)nn2)cc1`
3.68 µg/mL

Please look up its solubility: `COc1ccc(-c2oc3c(CC=C(C)C)c(O)cc(O)c3c(=O)c2OC(=O)CCC(=O)OCc2cn([C@H]3O[C@@H](CO)[C@H](O)[C@@H](O)[C@@H]3O)nn2)cc1`
12.3 µg/mL

* * *

assay: Determination of solubility (HPLC); assay type: physicochemical; conditions: aqueous with cosolvent or surfactant or cyclodextrin, thermodynamic from solid; 0.1% Tween 80; 37° C. overnight; n = 3; read-out: Solubility, 0.1% Tween 80
ASSAY_ENDPOINT: solubility (µg/mL)
Express the result in µg/mL but write the number alone.

Please look up its solubility: COc1ccc(-c2oc3c(CC=C(C)C)c(O)cc(O)c3c(=O)c2O)cc1 [Icaritin, reference compound]
8.11

* * *

experiment: Determination of solubility (HPLC); assay type: physicochemical; conditions: 37 °C, saline or isotonic, thermodynamic from solid
Please provide measured solubility for the entries that follow.
Express the result in µg/mL but write the number alone.

Please look up its solubility: `COc1ccc(-c2oc3c(CC=C(C)C)c(O)cc(O)c3c(=O)c2OC(=O)CCC(=O)OCc2cn(CCOCCO[C@H]3O[C@@H](CO)[C@H](O)[C@@H](O)[C@@H]3O)nn2)cc1`
11

Please look up its solubility: `COc1ccc(-c2oc3c(CC=C(C)C)c(O)cc(O)c3c(=O)c2OC(=O)CCC(=O)OCCOCCOCCOCCOCc2cn(CCO[C@H]3O[C@@H](CO)[C@H](O)[C@@H](O)[C@@H]3O)nn2)cc1`
47.9

Please look up its solubility: `COc1ccc(-c2oc3c(CC=C(C)C)c(O)cc(O)c3c(=O)c2OC(=O)CCC(=O)OCCN(CCOCc2cn(CCOCCO[C@H]3O[C@@H](CO)[C@H](O)[C@@H](O)[C@@H]3O)nn2)c2ccccc2)cc1`
23.9
